Entries annotated with measured MIC
Test system: Staphylococcus epidermidis
Experiment: Antibacterial activity against methicillin-sensitive Staphylococcus epidermidis 12-3 after 18 to 24 hrs by standard twofold serial dilution method
Type: functional
Measured parameter: MIC (µg/mL)

> print(dat)
                                    compound  value.measured
 1  NC[C@H]1/C(=N\OCc2ccccc2)CN1c1nc2c(cc1F)c(=O)c(C(=O)O)cn2[C@@H]1C[C@@H]1F             0.5
 2  CO/N=C1/CN(c2cc3c(cc2F)c(=O)c(C(=O)O)cn3[C@@H]2C[C@@H]2F)[C@H]1CN            0.25
 3  CCO/N=C1/CN(c2nc3c(cc2F)c(=O)c(C(=O)O)cn3[C@@H]2C[C@@H]2F)CC1CN (stereo partly specified)            0.03
 4  CO/N=C1/CN(c2c(F)cc3c(=O)c(C(=O)O)cn([C@@H]4C[C@@H]4F)c3c2OC)[C@H]1CN           0.125
 5  O=C(O)c1cn(C2CC2)c2cc(N3CCNCC3)c(F)cc2c1=O               2
 6  CO/N=C1/CN(c2cc3c(cc2F)c(=O)c(C(=O)O)cn3[C@@H]2C[C@@H]2F)[C@@H]1CN               1
 7  NCC1CN(c2cc3c(cc2F)c(=O)c(C(=O)O)cn3[C@@H]2C[C@@H]2F)C/C1=N/OCc1ccccc1 (stereo partly specified)           0.125
 8  CO/N=C1/CN(c2c(F)cc3c(=O)c(C(=O)O)cn([C@@H]4C[C@@H]4F)c3c2Cl)CC1CN (stereo partly specified)             0.5
 9  NC[C@@H]1/C(=N\OCc2ccccc2)CN1c1nc2c(cc1F)c(=O)c(C(=O)O)cn2[C@@H]1C[C@@H]1F               1
10  C[C@H]1COc2c(N3CCN(C)CC3)c(F)cc3c(=O)c(C(=O)O)cn1c23.C[C@H]1COc2c(N3CCN(C)CC3)c(F)cc3c(=O)c(C(=O)O)cn1c23.O             0.5
11  NC[C@@H]1/C(=N\OCc2ccccc2)CN1c1cc2c(cc1F)c(=O)c(C(=O)O)cn2[C@@H]1C[C@@H]1F               2
12  NCC1CN(c2c(F)cc3c(=O)c(C(=O)O)cn([C@@H]4C[C@@H]4F)c3c2Cl)C/C1=N/OCc1ccccc1 (stereo partly specified)               1
13  CCO/N=C1/CN(c2cc3c(cc2F)c(=O)c(C(=O)O)cn3[C@@H]2C[C@@H]2F)[C@@H]1CN           0.125
14  NC[C@H]1/C(=N\OCc2ccccc2)CN1c1cc2c(cc1F)c(=O)c(C(=O)O)cn2[C@@H]1C[C@@H]1F            0.25
15  CCO/N=C1/CN(c2c(F)cc3c(=O)c(C(=O)O)cn([C@@H]4C[C@@H]4F)c3c2Cl)CC1CN (stereo partly specified)               1
16  CCO/N=C1/CN(c2cc3c(cc2F)c(=O)c(C(=O)O)cn3[C@@H]2C[C@@H]2F)CC1CN (stereo partly specified)            0.25

----------
Let's look at some compounds and their measured log10 of MIC.
System: Klebsiella pneumoniae
Experiment: Antibacterial activity against extended-spectrum beta-lactamase producin Klebsiella pneumoniae 12-4 after 18 to 24 hrs by standard twofold serial dilution method
Type: functional
Measured parameter: log10 of MIC (log10 of the value in µg/mL)

> print(dat)
                                    compound  value.measured
 1  CO/N=C1/CN(c2cc3c(cc2F)c(=O)c(C(=O)O)cn3[C@@H]2C[C@@H]2F)[C@@H]1CN            1.20
 2  CCO/N=C1/CN(c2c(F)cc3c(=O)c(C(=O)O)cn([C@@H]4C[C@@H]4F)c3c2Cl)CC1CN (stereo not given in full)            1.51
 3  NCC1CN(c2c(F)cc3c(=O)c(C(=O)O)cn([C@@H]4C[C@@H]4F)c3c2Cl)C/C1=N/OCc1ccccc1 (stereo not given in full)            1.51
 4  CO/N=C1/CN(c2c(F)cc3c(=O)c(C(=O)O)cn([C@@H]4C[C@@H]4F)c3c2Cl)CC1CN (stereo not given in full)            1.20
 5  CO/N=C1/CN(c2nc3c(cc2F)c(=O)c(C(=O)O)cn3[C@@H]2C[C@@H]2F)CC1CN (stereo not given in full)           -0.30
 6  NC[C@H]1/C(=N\OCc2ccccc2)CN1c1cc2c(cc1F)c(=O)c(C(=O)O)cn2[C@@H]1C[C@@H]1F            0.90
 7  CO/N=C1/CCN(c2nc3c(cc2F)c(=O)c(C(=O)O)cn3[C@@H]2C[C@@H]2F)CC1N (stereo not given in full)            1.81
 8  CCO/N=C1/CN(c2nc3c(cc2F)c(=O)c(C(=O)O)cn3[C@@H]2C[C@@H]2F)[C@@H]1CN            1.51
 9  CO/N=C1/CN(c2cc3c(cc2F)c(=O)c(C(=O)O)cn3[C@@H]2C[C@@H]2F)CC1CN (stereo not given in full)            1.20
10  NC[C@@H]1/C(=N\OCc2ccccc2)CN1c1cc2c(cc1F)c(=O)c(C(=O)O)cn2[C@@H]1C[C@@H]1F            1.20

----------
Tested on: Staphylococcus aureus
Assay: Antibacterial activity against methicillin-sensitive Staphylococcus aureus 12-1 after 18 to 24 hrs by standard twofold serial dilution method
Assay type: functional
Measured parameter: MIC

> print(dat)
                                    compound  value.measured
 1  CCO/N=C1/CN(c2nc3c(cc2F)c(=O)c(C(=O)O)cn3[C@@H]2C[C@@H]2F)[C@H]1CN       0.5 µg/mL
 2  CO/N=C1/CN(c2c(F)cc3c(=O)c(C(=O)O)cn([C@@H]4C[C@@H]4F)c3c2OC)[C@H]1CN     0.125 µg/mL
 3  NCC1CN(c2nc3c(cc2F)c(=O)c(C(=O)O)cn3[C@@H]2C[C@@H]2F)C/C1=N/OCc1ccccc1 (stereo not given in full)   < 0.008 µg/mL
 4  CO/N=C1/CN(c2cc3c(cc2F)c(=O)c(C(=O)O)cn3[C@@H]2C[C@@H]2F)CC1CN (stereo not given in full)     0.125 µg/mL
 5  CCO/N=C1/CN(c2cc3c(cc2F)c(=O)c(C(=O)O)cn3[C@@H]2C[C@@H]2F)[C@@H]1CN      0.06 µg/mL
 6  CO/N=C1/CCN(c2c(F)cc3c(=O)c(C(=O)O)cn([C@@H]4C[C@@H]4F)c3c2OC)CC1N (stereo not given in full)   < 0.008 µg/mL
 7  CO/N=C1/CCN(c2c(F)cc3c(=O)c(C(=O)O)cn([C@@H]4C[C@@H]4F)c3c2Cl)CC1N (stereo not given in full)      0.25 µg/mL
 8  CO/N=C1/CCN(c2nc3c(cc2F)c(=O)c(C(=O)O)cn3[C@@H]2C[C@@H]2F)CC1N (stereo not given in full)         2 µg/mL
 9  CO/N=C1/CN(c2nc3c(cc2F)c(=O)c(C(=O)O)cn3[C@@H]2C[C@@H]2F)[C@H]1CN      0.06 µg/mL
10  NC[C@H]1/C(=N\OCc2ccccc2)CN1c1cc2c(cc1F)c(=O)c(C(=O)O)cn2[C@@H]1C[C@@H]1F     0.125 µg/mL
11  CCO/N=C1/CN(c2cc3c(cc2F)c(=O)c(C(=O)O)cn3[C@@H]2C[C@@H]2F)CC1CN (stereo not given in full)      0.06 µg/mL
12  NC[C@@H]1/C(=N\OCc2ccccc2)CN1c1cc2c(cc1F)c(=O)c(C(=O)O)cn2[C@@H]1C[C@@H]1F         1 µg/mL
13  CO/N=C1/CN(c2cc3c(cc2F)c(=O)c(C(=O)O)cn3[C@@H]2C[C@@H]2F)[C@@H]1CN       0.5 µg/mL
14  CCO/N=C1/CN(c2nc3c(cc2F)c(=O)c(C(=O)O)cn3[C@@H]2C[C@@H]2F)CC1CN (stereo not given in full)     0.015 µg/mL
15  C[C@H]1COc2c(N3CCN(C)CC3)c(F)cc3c(=O)c(C(=O)O)cn1c23.C[C@H]1COc2c(N3CCN(C)CC3)c(F)cc3c(=O)c(C(=O)O)cn1c23.O     0.125 µg/mL
16  COc1c(N2C[C@@H]3CCCN[C@@H]3C2)c(F)cc2c(=O)c(C(=O)O)cn(C3CC3)c12     0.015 µg/mL
17  CCO/N=C1/CN(c2c(F)cc3c(=O)c(C(=O)O)cn([C@@H]4C[C@@H]4F)c3c2Cl)CC1CN (stereo not given in full)      0.25 µg/mL
18  CO/N=C1/CN(c2c(F)cc3c(=O)c(C(=O)O)cn([C@@H]4C[C@@H]4F)c3c2Cl)CC1CN (stereo not given in full)     0.125 µg/mL
19  CO/N=C1/CN(c2nc3c(cc2F)c(=O)c(C(=O)O)cn3[C@@H]2C[C@@H]2F)[C@@H]1CN         1 µg/mL
20  NC[C@H]1/C(=N\OCc2ccccc2)CN1c1nc2c(cc1F)c(=O)c(C(=O)O)cn2[C@@H]1C[C@@H]1F      0.25 µg/mL
21  CO/N=C1/CCN(c2cc3c(cc2F)c(=O)c(C(=O)O)cn3[C@@H]2C[C@@H]2F)CC1N (stereo not given in full)       0.5 µg/mL
22  CCO/N=C1/CN(c2nc3c(cc2F)c(=O)c(C(=O)O)cn3[C@@H]2C[C@@H]2F)[C@@H]1CN       0.5 µg/mL
23  NC[C@@H]1/C(=N\OCc2ccccc2)CN1c1nc2c(cc1F)c(=O)c(C(=O)O)cn2[C@@H]1C[C@@H]1F       0.5 µg/mL
24  CCO/N=C1/CN(c2cc3c(cc2F)c(=O)c(C(=O)O)cn3[C@@H]2C[C@@H]2F)[C@H]1CN     0.125 µg/mL
25  NCC1CN(c2cc3c(cc2F)c(=O)c(C(=O)O)cn3[C@@H]2C[C@@H]2F)C/C1=N/OCc1ccccc1 (stereo not given in full)      0.06 µg/mL
26  CCO/N=C1/CN(c2c(F)cc3c(=O)c(C(=O)O)cn([C@@H]4C[C@@H]4F)c3c2OC)CC1CN (stereo not given in full)      0.25 µg/mL
27  CO/N=C1/CN(c2cc3c(cc2F)c(=O)c(C(=O)O)cn3[C@@H]2C[C@@H]2F)[C@H]1CN       0.5 µg/mL
28  O=C(O)c1cn(C2CC2)c2cc(N3CCNCC3)c(F)cc2c1=O      0.25 µg/mL
29  NCC1CN(c2c(F)cc3c(=O)c(C(=O)O)cn([C@@H]4C[C@@H]4F)c3c2Cl)C/C1=N/OCc1ccccc1 (stereo not given in full)       0.5 µg/mL
30  CO/N=C1/CN(c2nc3c(cc2F)c(=O)c(C(=O)O)cn3[C@@H]2C[C@@H]2F)CC1CN (stereo not given in full)     0.125 µg/mL

Cited source: ChEMBL document CHEMBL3352227
